target: bovine Estrogen Receptor (ER), ESR1 (gene 407238) (UniProt P49884); assay: NVS_NR_bER: NovaScreen (NVS) Nuclear Receptor Binding Assay for bovine Estrogen Receptor (ER) (AID 2283345);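 note: actives lower the bound radioligand count which means they displace the ER ligand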
Sequence (P49884 whole entry, looked up): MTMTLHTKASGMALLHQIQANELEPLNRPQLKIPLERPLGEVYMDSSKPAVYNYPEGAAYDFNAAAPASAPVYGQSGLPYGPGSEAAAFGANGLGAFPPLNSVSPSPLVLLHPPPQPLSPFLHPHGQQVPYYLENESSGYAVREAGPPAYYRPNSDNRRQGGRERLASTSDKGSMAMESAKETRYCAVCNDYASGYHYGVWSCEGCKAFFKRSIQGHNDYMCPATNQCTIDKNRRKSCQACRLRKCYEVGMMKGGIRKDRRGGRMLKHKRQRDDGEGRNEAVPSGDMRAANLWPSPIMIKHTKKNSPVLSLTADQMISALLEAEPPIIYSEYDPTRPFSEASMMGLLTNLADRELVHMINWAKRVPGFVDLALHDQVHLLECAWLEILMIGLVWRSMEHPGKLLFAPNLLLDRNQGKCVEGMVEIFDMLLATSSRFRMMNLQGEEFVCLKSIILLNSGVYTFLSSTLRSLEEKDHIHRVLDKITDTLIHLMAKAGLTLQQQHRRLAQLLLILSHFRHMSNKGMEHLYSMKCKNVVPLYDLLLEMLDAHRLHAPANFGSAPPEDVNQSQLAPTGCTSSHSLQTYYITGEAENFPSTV
Results filed as inconclusive are left out. Active and inactive are the calls of the source. Rule for the calls: active = hit-call score of the fitted dose curve at least 0.9, where 1 is the maximum; inconclusive = response in the unintended direction; inactive = score below 0.9.
Thanks in advance; please answer with one of these: active, inactive

| compound | category |
| --- | --- |
| C=C(C)C(=O)OCC(O)COc1ccc(C(C)(C)c2ccc(OCC(O)COC(=O)C(=C)C)cc2)cc1 (stereo not drawn) | inactive |
| C=C[Si](OCCOC)(OCCOC)OCCOC | inactive |
| O=C(O)c1cc(O)c2ccccc2c1O | inactive |

Look up the recorded call for C=CC(=O)OCC(C)OCC(C)OCC(C)OC(=O)C=C (stereo not drawn) in this test.
inactive

Item: CC(CCC(=O)O)(c1ccc(O)cc1)c1ccc(O)cc1
active

Another compound to look at: CCCCC/C=C\C/C=C\CCCCCCCC(=O)O
inactive

###

test: BSK_CASM3C_SRB: Viability Assessment in the BioMAP Diversity Plus: CASM3C Assay (AID 2283050); settings: primary human coronary artery smooth muscle cells;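 note: total protein by SRB staining as cytotoxicity measure in parallel cultures; cells exposed to compound for 24 h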
Calls of active or inactive are those of the source. Rule for the calls: active = hit-call score of the fitted dose curve at least 0.9, where 1 is the maximum; inactive = score below 0.9.
Outcomes you can answer with include only these: 1 = active, 0 = inactive

| compound | category |
| --- | --- |
| O=C1CCCCCCCCCCCN1 | 0 |
| CC(C)[N+](C)(CCOC(=O)C1c2ccccc2Oc2ccccc21)C(C)C | 0 |
| c1ccc2sc(SSN3CCOCC3)nc2c1 | 1 |
| CCCCCCCO | 0 |
| CCCCCCCCCCCC(C)=O | 1 |

Let's switch to this compound now.
What outcome does the record of this test show for CC(Cl)COP(=O)(OCC(C)Cl)OCC(C)Cl (stereo not given) ?
0

###

assay: ATG_NRF2_ARE_CIS: Attagene CIS-FACTORIAL HepG2 Assay for human Nuclear Factor Erythroid 2 Related Factor 2 (NFR2) response to Antioxidant Response Elements (ARE) (AID 2282992); details: HepG2 Attagene ARE/NRF2 reporter, transcription factor activity; actives raise or lower the signal
The source made the active and inactive calls. Rule for the calls: active = hit-call score of the fitted dose curve at least 0.9, where 1 is the maximum; inactive = score below 0.9.
Just give me one of these, please: active, inactive

Answered cases to consult:
| compound | category |
| --- | --- |
| C=CC(=O)OCCCCCCCC(C)C | active |
| CC(=O)OCC=C(C)C | inactive |
| CCCCOC(=O)C(C)CC (stereo not given) | inactive |
| C[Si](C)(C)N[Si](C)(C)C | inactive |

Which outcome was assigned to Oc1ccccc1Cc1ccccc1O in this test?
active

// repeat for CCCCCCC=O and report
inactive

Please answer likewise for COc1ccc(C(=O)c2ccccc2)c(O)c1
active

# iterate: Cc1cc(=O)[nH]c(=O)[nH]1
inactive

Input CC(C)C(=O)OCCOc1ccccc1
inactive

Try the compound CCCCCCCCCCCCc1ccc(O)cc1
inactive

###

read-out: Interleukin 2 (IL2), IL2 (gene 3558); assay: BSK_BT_xIL2: BioMAP Diversity Plus: BT Assay for Interleukin 2 (IL2) Biomarker Activity (AID 2284245); details: primary human B cells with PBMC
Calls of active or inactive are those of the source. How the source made its calls: active means hit-call score of the fitted dose curve at least 0.9, where 1 is the maximum; inactive means score below 0.9.
parameter measured: AC50

Some solved entries appear below for comparison.
| compound | recorded result |
| --- | --- |
| Cc1c(O)cccc1O | inactive |
| CC1=CC=C(C(C)C)CC1 | inactive |
| CC=C(C)C(C)=O | inactive |
| C=CC(=O)OCC(C)OCC(C)OCC(C)OC(=O)C=C (centres undefined) | 9.17 µM (active) |

What does the data say about its AC50? Entry: CC/C=C\C/C=C\C/C=C\CCCCCCCC(=O)OC
27.5 µM (active)

Could you do the same for CCCCCCOC(=O)CCCCC(=O)OCCCCCC , please?
inactive

Also check C=CC(=O)OCCCCCCCC(C)C
inactive

Moving on to CCOC(=O)C1=NOC(c2ccccc2)(c2ccccc2)C1
inactive

Proceed to O=C1CCCCCCCCCCC1
inactive

###

test: CEETOX_H295R_CORTIC: CeeTox H295R High-throughput Steroidogenesis Assay for Corticosterone (CORTIC) (AID 2283437); settings: actives raise or lower the signal;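 note: corticosterone secreted into medium quantified by mass spectrometry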
Activity calls are given as the source filed them. How the source made its calls: active means hit-call score of the fitted dose curve at least 0.9, where 1 is the maximum; inactive means score below 0.9.
Your reply should match one of these outcome classes. t = active, f = inactive

As a guide, the following entries are already answered.
| compound | category |
| --- | --- |
| CCN1CN(CC)CN(CC)C1 | f |
| O=C(OCc1ccccc1)c1ccc(O)cc1 | f |
| COc1ccc(C(=O)c2ccccc2)c(O)c1 | t |

Please let me know the test result on file for CC(C)(c1ccccc1)c1ccc(Nc2ccc(C(C)(C)c3ccccc3)cc2)cc1 .
f

Now consider C=C[C@@]1(C)CC(=O)[C@]2(O)[C@@]3(C)[C@@H](O)CCC(C)(C)[C@@H]3[C@H](O)[C@H](OC(C)=O)[C@@]2(C)O1 .
t

Also need CCOC(=O)C1=NN(c2ccc(Cl)cc2Cl)C(C)(C(=O)OCC)C1 (stereo unspecified) , thanks.
f

###

Experiment: ATG_EGR_CIS: Attagene CIS-FACTORIAL HepG2 Assay for human Early Growth Response 1 (EGR1) (AID 2282938)
Conditions: HepG2 Attagene CIS-FACTORIAL EGR reporter mRNA; actives raise or lower the signal
Protocol: ATG_CIS is a cell-based, multiplexed-readout assay that uses HepG2, a human liver cell line, with measurements taken at 24 hours after chemical dosing in a 24-well plate.ATG_EGR_CIS is one of 52 assay component(s) measured or calculated from the ATG_CIS assay. […] This assay endpoint, ATG_EGR_CIS, was analyzed with bidirectional fitting relative to DMSO as the negative control and baseline of activity. […]
Active and inactive are the calls of the source. How the source made its calls: active means hit-call score of the fitted dose curve at least 0.9, where 1 is the maximum; inactive means score below 0.9.
Classes to choose from: active, inactive

Example results:
| molecule | category |
| --- | --- |
| CC1(C)[C@@H]2CC[C@@]1(C)C(=O)C2 | inactive |
| CCOB(OCC)OCC | inactive |
| CCc1cccc(CC)c1 | inactive |

Could you check what this test reported for COCC(=O)O ?
inactive

Note, next up: CC1=NN(c2ccc(S(=O)(=O)O)cc2)C(=O)C1N=Nc1ccccc1 (stereo unspecified)
inactive

Could you do the same for CC(CC(C)C)=NO , please?
inactive

Then what about the molecule O=C(O)CC(C(=O)O)S(=O)(=O)O (stereo unspecified) ?
inactive

Try CC(C)c1cc(C(C)C)cc(C(C)C)c1 next.
inactive

Then C/C=C/C=C/CCCCCCCO ?
active

And for CCCCCCCOC(=O)c1ccc(O)cc1 ?
inactive

How about c1ccc2c(c1)[nH]c1ccccc12 ?
inactive

Another molecule to check: Nc1ccc(O)c([N+](=O)[O-])c1
inactive

Same question for C=C(C)C(=O)OCCCCCCCCCCCC please.
inactive

Now this one: CC(C)COC(=O)CC(C(=O)OCC(C)C)S(=O)(=O)O (stereo unspecified)
inactive

Same read-out for C=CCCCCCCCCC=O ?
inactive

// same read-out, input: CC(C)CCOCc1ccccc1
inactive

###

read-out: Tissue Factor, F3 (gene 2152); experiment: BSK_CASM3C_TissueFactor: BioMAP Diversity Plus: CASM3C Assay for Tissue Factor Biomarker Activity (AID 2283052); settings: primary human coronary artery smooth muscle cells; actives raise or lower the signal;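 note: cell surface tissue factor protein level read by ELISA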
Activity calls are given as the source filed them. The calls were made as follows: active = hit-call score of the fitted dose curve at least 0.9, where 1 is the maximum; inactive = score below 0.9.
Field 'call' accepts active, inactive

Test call, this compound: CC/C=C\CCOC(=O)c1ccccc1O
active

Try this compound next: Nc1cccc(N)n1
inactive

Repeat with C1CNCCN1
inactive

###

assay: CEETOX_H295R_ESTRONE: CeeTox H295R High-throughput Steroidogenesis Assay for Estrone (AID 2283441); details: actives raise or lower the signal;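 note: estrone secreted into medium measured by LC-MS/MS after dansyl derivatization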;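 for AC50: human adrenal H295R cells prestimulated with forskolin for two days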
Calls of active or inactive are those of the source. The calls were made as follows: active = hit-call score of the fitted dose curve at least 0.9, where 1 is the maximum; inactive = score below 0.9.
parameter measured: AC50

| sample smiles | AC50 |
| --- | --- |
| O=C(O)c1cc(O)c2ccccc2c1O | inactive |
| CN(C)c1ccc2nc3ccc(=[N+](C)C)cc-3sc2c1 | inactive |
| O=C(OCc1ccccc1)c1ccc(O)cc1 | 37.5 µM (active) |
| C=C[C@@]1(C)CC(=O)[C@]2(O)[C@@]3(C)[C@@H](O)CCC(C)(C)[C@@H]3[C@H](O)[C@H](OC(C)=O)[C@@]2(C)O1 | 0.719 µM (active) |
| COc1ccc(-c2coc3cc(O)cc(O)c3c2=O)cc1 | inactive |

# query: AC50 of entry COc1ccc(C(=O)c2ccccc2)c(O)c1
inactive

###

experiment: ATG_NFI_CIS: Attagene CIS-FACTORIAL HepG2 Assay for human Nuclear Factor I (NFI) (AID 2282989); details: HepG2 cis-regulatory reporter, NFI response element transcription; actives raise or lower the signal
Calls of active or inactive are those of the source. The calls were made as follows: active = hit-call score of the fitted dose curve at least 0.9, where 1 is the maximum; inactive = score below 0.9.
Please answer using one outcome listed in active, inactive

// below: answered compounds
| compound | category |
| --- | --- |
| N#CC1(N)CCCCC1 | inactive |
| O=C(O)/C=C/c1ccccc1 | inactive |
| CC(C)OC(=O)c1ccccc1 | inactive |

Recorded test call requested for CC(C)C(=O)OCCOc1ccccc1
inactive

Can you check CC(C)c1ccc2ncccc2c1 next?
inactive

Request: O=C(Oc1ccccc1)c1ccccc1C(=O)Oc1ccccc1
inactive

For CC12CCC(CC1)C(C)(C)O2 then?
inactive

Continue with O=C(OCc1ccccc1)c1ccc(O)cc1
inactive

Follow-up entry: Cn1cccc1
active

Now try Nc1ncnc2nc[nH]c12 .
inactive

Same read-out for CC(C)=NNC(N)=S ?
inactive

Next compound up: CC1=CP(=O)(c2ccccc2)CC1 (stereo not drawn)
inactive

# repeat for C=Cc1ccc(OC(C)=O)cc1
inactive

Now the compound COC(=O)C=Cc1ccccc1
inactive

Ok, now Clc1cc(Cl)c(Cl)c(Cl)c1Cl
inactive

Follow-up item: CCNc1nc(NC(C)(C)C)nc(OC)n1
inactive

Ok, now CCCCNS(=O)(=O)c1ccccc1
inactive

Another compound to check: NNS(=O)(=O)c1ccc(Oc2ccc(S(=O)(=O)NN)cc2)cc1
inactive

Same question, Cc1cc(=O)[nH]c(=O)[nH]1 this time
inactive

Ref: PubChem BioAssay (EPA / NIEHS)
